B1: CCND1 (parent)
chain: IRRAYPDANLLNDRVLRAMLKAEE

Variants of: B1
Assay: protein stability index of a GFP-peptide fusion (GPS, HEK-293T) (PSI 1-6); higher = more stable;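 note: lentivirally expressed fusions sorted by FACS into six bins by GFP to DsRed ratio, PSI derived from sequencing read proportions per bin multiplied by bin number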
Settings: c terminus: a fixed tail appended
measured-endpoint: protein stability index
Reply: number alone, nothing else.

[[record]]
biosequence = "IRRAYPDANLLNDRVLRACLKAEE [M19C]"
measured_value = 3.48


# protein stability index lookup, item IRRAYPDANLLNKRVLRAMLKAEE [D13K]
2.45

# protein stability index lookup, item IRRAYPDANLLNDRVQRAMLKAEE [L16Q]
3.53

# protein stability index lookup, item IRRAYPDANLSNDRVLRAMLKAEE [L11S]
3.01

# protein stability index lookup, item IRRAYPDANLLNDRVLRAMLKAFE [E23F]
1.62
